# measured.target: human mAChR M1 (Homo sapiens, UniProt P11229)
# Sequence (P11229 whole entry): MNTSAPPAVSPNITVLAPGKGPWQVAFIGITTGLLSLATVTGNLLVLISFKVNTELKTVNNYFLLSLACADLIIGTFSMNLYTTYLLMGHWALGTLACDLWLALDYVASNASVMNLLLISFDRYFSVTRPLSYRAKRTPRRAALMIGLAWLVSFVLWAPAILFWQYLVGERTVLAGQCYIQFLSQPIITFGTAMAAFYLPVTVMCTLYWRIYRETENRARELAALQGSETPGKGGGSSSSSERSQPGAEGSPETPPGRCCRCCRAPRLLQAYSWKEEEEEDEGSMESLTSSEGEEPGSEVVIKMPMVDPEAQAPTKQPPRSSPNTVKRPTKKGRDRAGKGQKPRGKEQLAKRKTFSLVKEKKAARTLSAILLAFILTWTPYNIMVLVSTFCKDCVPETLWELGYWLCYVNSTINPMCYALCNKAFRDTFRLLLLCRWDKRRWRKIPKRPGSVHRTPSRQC
# measurement.description: mAChR M1 cell-based functional assay: calcium mobilization, positive allosteric modulator mode (increase in EC20 acetylcholine response)
# setup.conditions: Table 2; human M1; read-out: Human M1 Emax (%)
readout.kind: Emax (%)

O=C1CC(NC(=O)c2cc(Cc3ccc(-n4cccn4)cc3)c3sccc3n2)CN1 (centres unmarked) ... 63.7
Cn1cc(-c2ccc(Cc3cc(C(=O)N[C@H]4CC[C@@H]4O)nc4ccsc34)cn2)cn1 ... 80.5
Cn1cc(-c2ccc(Cc3cc(C(=O)N[C@@H]4CCCCC[C@H]4O)nc4ccsc34)cc2)nn1 ... 70
Cc1ccc([C@H](F)c2cc(C(=O)N[C@H]3CCCC[C@@H]3O)nc3ccsc23)cn1 ... 67.8
CC1(C)CC(NC(=O)c2ccc(Cc3cc(C(=O)NC4CCOC(C)(C)C4)nc4ccsc34)cc2)CCO1 (centres unmarked) ... 68.8
Cc1nc(-c2ccc(Cc3cc(C(=O)NC4COC4)nc4ccsc34)cc2)co1 ... 34

A = Cn1ccc(-c2ccc(Cc3cc(C(=O)NC4CC(F)C4)nc4ccsc34)cn2)n1 (centres unmarked)
B = Cc1ccc(Cc2cc(C(=O)N[C@H]3CCOC3)nc3ccsc23)cn1
Kindly identify the item with the lower Emax figure among these two: A and B Record your answer as the label of the chosen record. B
